# Test system: SF-268 CNS
# method_summary: NCI tumour cell line growth inhibition, 48 h
assay_endpoint: TGI

Prompt: // TGI lookup, key: CCOC(=O)CC[C@H](NC(=O)c1ccc(CNc2nc3cc(C(F)(F)F)ccc3nc2C(=O)OCC)cc1)C(=O)OCC
Response: 34.4 µM

Prompt: Which measured TGI value corresponds to Cn1ncc2c(=O)[nH]c(-c3ccccc3)nc21 ?
Response: > 100 µM

Prompt: What value of TGI has been reported for the following compound? COC(=O)c1c(O)ccc2c1c1cc3ccccc3c(O)c1n2Cc1ccccc1Cl
Response: 97.7 µM

Prompt: Field request: TGI | item: NCc1ccc(O)c(O)c1O
Response: 61.6 µM

Prompt: # get_value(readout='TGI', item= Cc1c2ccccc2c(CSC(=N)N)c2ccccc12 )
Response: 1.33 µM

Prompt: For O=S(Nc1ccccc1)c1ccccc1Oc1ccccc1 (stereo not drawn) , what is its reported TGI?
Response: 62 µM

Prompt: Which TGI value belongs to O=C(O)COc1cc(-c2ccccc2F)nc2cc3c(cc12)OCO3 ?
Response: > 100 µM

Prompt: Endpoint output: TGI of Cc1ccccc1NC(=O)N/C(N)=N/c1nc(C)c(C)s1 . Value?
Response: > 100 µM

Prompt: I would be grateful if you could share the reported TGI for O=C(/C=C/c1ccccc1)Nc1ncc(Cc2ccccc2)s1 .
Response: > 100 µM

Prompt: What value of TGI has been reported for the following compound? Clc1cc2nc[nH]c2cc1Cl
Response: > 100 µM

Prompt: Can you look up the measured TGI of CN(C)c1ccc(/C=N/NC(=O)CSc2nc3sc4c(c3c(=O)n2-c2ccccc2)CCCCC4)cc1 for me?
Response: > 100 µM

Prompt: I have this compound here, O=C(/C=C/c1ccc[nH]1)c1ccccc1 , and I need its recorded TGI.
Response: > 100 µM

Prompt: Please report the recorded TGI for COc1cccc([C@@H]2C/C(=N\NC(=O)C(=O)N[C@@H](C)c3ccccc3)c3cc4c(cc3N2)OCO4)c1 .
Response: > 100 µM

Prompt: I would be grateful if you could share the reported TGI for CC1(C)[C@H]2CC[C@](C)(C2)[C@]1(S)Cc1ccccn1 .
Response: > 100 µM

Prompt: So what does the record say about TGI for CSc1ccc(/C=C/C(=O)c2nc3ccccc3[nH]2)cc1 ?
Response: 93.6 µM

Prompt: Query (compound): CC1(OCc2ccccc2)C(=O)N2C1N(C(=O)OCc1ccccc1)CC2(C)C (stereo not drawn) ; field requested: TGI
Response: > 100 µM

Prompt: Fill in: TGI of COc1cccc(-c2cc(C(=O)Nc3ccc(Cl)cc3)nc(N)n2)c1 is ___
Response: > 100 µM

Prompt: Consider the compound COC(=O)CCC(=O)Nc1cccc(C(F)(F)F)c1 and give its measured TGI.
Response: > 100 µM

Prompt: Form field: reported TGI of CC(C)NC1CCCCC2c3cc(F)ccc3[C@]12O (stereo partly drawn)
Response: > 100 µM

Prompt: Item CC(/C=C/c1ccccc1)=N\N=C(C)\C=C\c1ccccc1 has what recorded TGI?
Response: > 100 µM

Prompt: Any idea what its TGI is? The compound is C[C@]12CCC(=O)C=C1CC[C@@H]1[C@@H]2CC[C@]2(C)C(=O)/C(=C/c3ccncc3)C[C@@H]12
Response: 45 µM

Prompt: # query: TGI of entry O=c1[nH]ccc2nc(N3CCC(O)CC3)nc(Nc3ccc(N4CCOCC4)cc3)c12
Response: > 100 µM

Prompt: Given the entry Cc1ccc(N/C(=C(/C(Cl)=C(Cl)Cl)[N+](=O)[O-])n2nnc3ccccc32)cc1 , report its measured TGI.
Response: 36.8 µM

---

Kindly state TGI for each of the entries shown.
# Tested on: NCI-H522 lung
# method_summary: NCI tumour cell line growth inhibition, 48 h

Prompt: API: value(readout=TGI, system=NCI-H522 lung) for record N#CC1=C(c2ccccc2)NN(Cc2ccccc2)C(c2ccc(Cl)cc2)CC1=O (stereo unspecified)
Response: 38.5 µM

Prompt: NCI-H522 lung / TGI / Cc1cc2nn(C3CCCCO3)nc2cc1C (stereo unspecified) : value?
Response: > 100 µM

Prompt: Notebook entry, NCI-H522 lung assay: TGI of CCOP(=O)(OCC)c1cc2cc(O)ccc2oc1=O = ?
Response: > 100 µM

Prompt: Observed TGI on NCI-H522 lung for C=C1CC(COc2ccc3c(C)c(Cl)c(=O)oc3c2)(c2ccccc2)OC1=O (stereo unspecified) , please.
Response: 3.93 µM

Prompt: Give TGI (NCI-H522 lung) of the following compound: CCN(CC)c1ccc(CNc2cc(C)nc3ccc(OC)cc23)cc1
Response: 3.28 µM

Prompt: State its TGI on NCI-H522 lung: c1cc2c(cc1NC1=NCCO1)CCCC2
Response: 18 µM

Prompt: Form entry - test system: NCI-H522 lung; read-out: TGI; compound: Cc1ccc(N/N=C/C2=CC(C)(C)C(C#N)(C#N)C(O)=C2C#N)cc1
Response: > 100 µM

Prompt: Form field: TGI recorded for CCN1C(=O)/C(=C\c2coc3ccccc3c2=O)SC1=S with NCI-H522 lung (enter value)
Response: > 100 µM

Prompt: Recall the recorded TGI for O=C1CCN=C(NC(=O)C(F)(F)F)N1CCc1c[nH]c2ccccc12 with NCI-H522 lung and state it.
Response: > 100 µM

Prompt: For NCI-H522 lung, provide TGI of C=CC(C)CCC(C/C=C(\C)CCCC(C)C)C(=C)CCCC(C)C (stereo unspecified) please.
Response: > 100 µM

Prompt: Reported TGI for NCI-H522 lung, given CC(C)(C)n1nc(C2CC2)cc1NC(=O)Nc1ccc(Cl)cc1 ?
Response: > 100 µM

Prompt: Lab note: need TGI with NCI-H522 lung for entry O=C1CSC(c2c[nH]c3ccccc23)N1c1cccc([N+](=O)[O-])c1 (stereo unspecified) , please look it up.
Response: > 100 µM

Prompt: Could you share what TGI was measured for O=C(CC(O)c1cccnc1)CC(O)c1cccnc1 (stereo unspecified) , tested on NCI-H522 lung?
Response: 32.1 µM

Prompt: Notebook: pull reported TGI for NCI-H522 lung, entry Clc1ccc(-c2c3nc(c(-c4ccc(Cl)cc4)c4ccc([nH]4)c(-c4ccc(Cl)cc4)c4nc(c(-c5ccc(Cl)cc5)c5ccc2[nH]5)C=C4)C=C3)cc1
Response: > 100 µM

Prompt: Give NCI-H522 lung TGI for O=S1(=O)OCc2ccccc21
Response: > 100 µM

Prompt: Look up TGI with NCI-H522 lung for this compound: CCCCCCCCCCCCCCCCC(=O)NCC(=O)NCC(=O)NC(Cc1ccccc1)C(=O)Oc1ccc([N+](=O)[O-])cc1 (stereo unspecified)
Response: 55.2 µM

Prompt: Param readout = TGI; param system = NCI-H522 lung; param query = Nc1c(C(=O)c2cccc(C(O)(CO)CO)c2)cnn1-c1ccc(F)cc1 ; response: value
Response: > 25 µM

Prompt: Param readout = TGI; param system = NCI-H522 lung; param query = CC(=O)NC1C(O)C(O)C(CO)OC1n1nc(SCc2ccccc2)c(=O)[nH]c1=O (stereo unspecified) ; response: value
Response: > 100 µM

Prompt: Give recorded TGI with NCI-H522 lung for the following compound: COCn1c(=O)n(C)c(=O)c2c1nc1c(c(=O)n(C)c(=O)n1COC)[n+]2[O-]
Response: 44 µM

Prompt: GET /values?readout=TGI&system=NCI-H522 lung&item= CN1CCN2c3ccccc3CC(C#N)(C#N)C2C1 (stereo unspecified)
Response: > 100 µM

Prompt: Item CN(C)C=O.CN(C)C=O.CN1C(C(=O)Nc2ccccn2)=C([O-])c2ccccc2S1(=O)=O.CN1C(C(=O)Nc2ccccn2)=C([O-])c2ccccc2S1(=O)=O.[Cu+2] with NCI-H522 lung - TGI?
Response: > 100 µM

---

Would you kindly list TGI for each of these compounds?
# Test system: CAKI-1 renal
# method_summary: NCI tumour cell line growth inhibition, 48 h
// units = µM; emit number, no label

Prompt: Notebook entry, CAKI-1 renal assay: TGI of ClCCN(CC#CCCCC#CCN(CCCl)CCCl)CCCl = ?
Response: 32.7

Prompt: Test system CAKI-1 renal; read-out TGI; what value for CCN(CC)c1ccc(CNc2cc(C)nc3ccc(OC)cc23)cc1 ?
Response: 10.5

Prompt: CAKI-1 renal / TGI / CCOC(=O)CC[C@H](NC(=O)c1ccc(CNc2nc3cc(C(F)(F)F)ccc3nc2C(=O)OCC)cc1)C(=O)OCC : value?
Response: 29.5

Prompt: Please provide the recorded TGI for COC(=O)c1c(O)ccc2c1c1cc3ccccc3c(O)c1n2Cc1ccccc1Cl , tested on CAKI-1 renal.
Response: 61.9

Prompt: What measured TGI is associated with CC1=CC[C@@H]2[C@@H](CC[C@@]2(C)O)C(C)(C)[C@H]1CC[C@@H]1[C@@]2(C)CC[C@@H](O)C(C)(C)O[C@@H]2CC[C@]1(C)O on CAKI-1 renal?
Response: 54.2

Prompt: Lookup: TGI / CAKI-1 renal / CN(Cc1ccccc1)c1ncnc2ccc(Br)cc12
Response: 17.6

Prompt: API: value(readout= TGI, system= CAKI-1 renal, query= CCCCC1CCCCCCc2[nH]c(/C=C3\N=C(c4ccc[nH]4)C=C3OC)cc21 (configuration not stated) )
Response: 4.32

Prompt: Form field - read-out: TGI; system: CAKI-1 renal; submitted item: CC(C)(C)c1cc(O)c2c(c1O)C(=O)CCC2
Response: 82.3

Prompt: Give TGI (CAKI-1 renal) of the following compound: COC(=O)C12OCC34C(CC5C(C)C6=CC(=O)OC6=CC5(C)C3C(O)C1O)OC(=O)C(OC(C)=O)C24 (configuration not stated)
Response: 25.2

These measurements were taken from PubChem BioAssay (NCI).
